Test: Drug uptake in Wistar rat brain at 10 mg/kg, sc after 2 hrs
Type: ADME, organism-based
Details: read-out: Drug uptake
MEASURE: concentration at 2 h
Answer as a quantity: numeral, then unit.

Tell me concentration at 2 h reported for c1ccc2sc(NC3=NCC4(CN5CCC4CC5)N3)nc2c1 (stereo unspecified) 1920 nM

* * *

Target: Neuronal acetylcholine receptor subunit alpha-7 (Rattus norvegicus)
Sequence (Q05941 whole entry): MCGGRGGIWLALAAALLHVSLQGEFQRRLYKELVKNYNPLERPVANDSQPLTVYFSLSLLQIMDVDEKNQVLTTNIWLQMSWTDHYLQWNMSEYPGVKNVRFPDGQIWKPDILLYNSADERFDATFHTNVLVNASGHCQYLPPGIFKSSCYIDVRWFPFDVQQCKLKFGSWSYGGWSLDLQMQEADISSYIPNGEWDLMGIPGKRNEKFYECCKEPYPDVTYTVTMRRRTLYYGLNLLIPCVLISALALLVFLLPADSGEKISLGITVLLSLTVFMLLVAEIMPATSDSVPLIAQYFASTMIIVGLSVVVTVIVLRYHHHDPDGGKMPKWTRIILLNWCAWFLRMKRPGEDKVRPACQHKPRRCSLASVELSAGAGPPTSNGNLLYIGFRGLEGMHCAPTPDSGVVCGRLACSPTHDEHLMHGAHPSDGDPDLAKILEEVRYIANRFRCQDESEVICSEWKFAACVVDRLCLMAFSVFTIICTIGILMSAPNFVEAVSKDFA
Experiment: Agonist activity at rat alpha7 nAChR expressed in HEK293 cells co-expressing human RIC-3 assessed as area under current curve at 10 uM at holding potential of -90 mV by whole-cell voltage clamp electrophysiology method relative to acetylcholine
Assay type: cell-based
Output True for records whose Emax is lower than 60%, False for records at or above 60%.

# COMPOUND, LABEL
rows = [
    ("c1ccc2sc(NC3=NCC4(CN5CCC4CC5)N3)nc2c1 (stereo not given)", "False"),
    ("CN1C(Nc2nc3ccccc3s2)=NCC12CN1CCC2CC1 (stereo not given)", "False"),
    ("Cc1ccc2nc(NC3=NCC4(CN5CCC4CC5)N3)oc2c1 (racemic)", "True"),
    ("Clc1cnc(NC2=NCC3(CN4CCC3CC4)N2)nc1 (racemic)", "True"),
]

Next item in the queue.
For this compound, is Emax lower than 60%? Clc1ccc2nc(NC3=NCC4(CN5CCC4CC5)N3)sc2c1 (racemic) True

* * *

A collection of compounds and their measured EC50
Molecular target: Neuronal acetylcholine receptor subunit alpha-7 (Rattus norvegicus)
Experiment: Agonist activity at rat alpha7 nAChR expressed in HEK293 cells co-expressing human RIC-3 assessed as area under current curve at holding potential of -90 mV by whole-cell voltage clamp electrophysiology method
Format: cell-based
Quick note: give the figure in µM, leave out the unit.

# COMPOUND, VALUE_UNITS, EC50
measured = [
    ("Cc1ccc2nc(NC3=NCC4(CN5CCC4CC5)N3)oc2c1 (racemic)", "µM", 0.5),
    ("CN1C(Nc2nc3ccccc3s2)=NCC12CN1CCC2CC1 (stereo not given)", "µM", 1.2),
    ("c1ccc2sc(NC3=NCC4(CN5CCC4CC5)N3)nc2c1 (stereo not given)", "µM", 0.2),
    ("Clc1cnc(NC2=NCC3(CN4CCC3CC4)N2)nc1 (racemic)", "µM", 1.1),
]

# next compound below
# lookup: Neuronal acetylcholine receptor subunit alpha-7 (Rattus norvegicus) EC50, key = Clc1ccc2nc(NC3=NCC4(CN5CCC4CC5)N3)sc2c1 (racemic) 1.2

* * *

Target: Neuronal acetylcholine receptor subunit alpha-7 (Homo sapiens, UniProt P36544)
Sequence (P36544 whole entry): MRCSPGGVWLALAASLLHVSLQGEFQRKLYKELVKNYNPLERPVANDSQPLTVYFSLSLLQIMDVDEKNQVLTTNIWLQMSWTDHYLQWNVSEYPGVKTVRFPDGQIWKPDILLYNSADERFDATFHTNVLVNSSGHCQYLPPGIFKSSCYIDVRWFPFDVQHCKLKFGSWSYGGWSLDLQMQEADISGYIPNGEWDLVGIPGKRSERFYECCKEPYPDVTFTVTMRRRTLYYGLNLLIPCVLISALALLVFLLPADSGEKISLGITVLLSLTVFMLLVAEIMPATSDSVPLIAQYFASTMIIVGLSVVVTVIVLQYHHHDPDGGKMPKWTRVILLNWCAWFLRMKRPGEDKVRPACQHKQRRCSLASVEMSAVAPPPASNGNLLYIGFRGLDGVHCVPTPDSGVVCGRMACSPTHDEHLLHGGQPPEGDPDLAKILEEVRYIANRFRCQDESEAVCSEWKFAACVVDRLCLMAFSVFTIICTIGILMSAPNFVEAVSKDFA
Assay: Agonist activity at alpha7 nAChR (unknown origin) expressed in HEK293 cells assessed as increase in calcium influx by Fluo-4-AM dye based FLIPR assay
Entries and their pEC50
# reply with the number alone; pEC50 is -log10 of concentration in mol/L

# COMPOUND, MEASURED_ON, pEC50
measured = [
    ("c1cn(-c2cc(NC3=NCC4(CN5CCC4CC5)N3)ncn2)cn1 (racemic)", "Neuronal acetylcholine receptor subunit alpha-7 (Homo sapiens, UniProt P36544)", 6.85),
    ("c1ccc2oc(NC3=NCC4(CN5CCC4CC5)N3)nc2c1 (racemic)", "Neuronal acetylcholine receptor subunit alpha-7 (Homo sapiens, UniProt P36544)", 7.28),
    ("Clc1cccc2sc(NC3=NCC4(CN5CCC4CC5)N3)nc12 (racemic)", "Neuronal acetylcholine receptor subunit alpha-7 (Homo sapiens, UniProt P36544)", 6.92),
    ("Cc1ccc2nc(NC3=NCC4(CN5CCC4CC5)N3)oc2c1 (racemic)", "Neuronal acetylcholine receptor subunit alpha-7 (Homo sapiens, UniProt P36544)", 7.46),
    ("Clc1cnc(NC2=NCC3(CN4CCC3CC4)N2)nc1 (racemic)", "Neuronal acetylcholine receptor subunit alpha-7 (Homo sapiens, UniProt P36544)", 6.54),
    ("c1ccc2c(NC3=NCC4(CN5CCC4CC5)N3)ncnc2c1 (racemic)", "Neuronal acetylcholine receptor subunit alpha-7 (Homo sapiens, UniProt P36544)", 6.28),
]

Specify measured pEC50 for CN1C(Nc2nc3ccccc3s2)=NCC12CN1CCC2CC1 (centres undefined) . 6.77

Return value of pEC50 for input Clc1ccc2nc(NC3=NCC4(CN5CCC4CC5)N3)sc2c1 (racemic) , no commentary. 6.82

Quote pEC50 reported for Clc1ccc2nc(NC3=NCC4(CN5CCC4CC5)N3)sc2n1 (racemic) please. 7.25

Using known records, supply pEC50 for Clc1ccc(NC2=NCC3(CN4CCC3CC4)N2)nc1 (racemic) 5.92

Provide one value: measured pEC50 of Clc1cnc(NC2=NCC3(CN4CCC3CC4)N2)cn1 (racemic) 6.00

Recall and state the measured pEC50 for Clc1ccc2c(NC3=NCC4(CN5CCC4CC5)N3)ncnn12 (centres undefined) . 7.21

Assign pEC50 to the following record: COc1cc(NC2=NCC3(CN4CCC3CC4)N2)ncn1 (racemic) 5.89

Give reported pEC50 value for COc1ccc2nc(NC3=NCC4(CN5CCC4CC5)N3)sc2c1 (racemic) 6.06

Given the compound c1ccc2nc(NC3=NCC4(CN5CCC4CC5)N3)cnc2c1 (racemic) , write its reported pEC50. 6.31

Could you please provide reported pEC50 for CN1C(Nc2nc3ccc(Cl)nc3s2)=NCC12CN1CCC2CC1 (racemic) ? Thanks! 6.26

State its pEC50: COc1ccc2sc(NC3=NCC4(CN5CCC4CC5)N3)nc2c1 (racemic) 6.12

Name the recorded pEC50 of the item c1ccc2sc(NC3=NCC4(CN5CCC4CC5)N3)nc2c1 (centres undefined) in your answer. 7.59

Data credit: ChEMBL document CHEMBL4041530
